B1: r16_88_TrROS_Hall (parent)
chain: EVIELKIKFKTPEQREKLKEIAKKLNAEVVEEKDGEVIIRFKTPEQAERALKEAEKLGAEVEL

# Variants of: B1
# assay_name: folding stability dG (cDNA display proteolysis); higher = more stable
# condition_description: PBS, room temperature
Measured folding stability dG, listed per entry for reference.
Your answer is read as kcal/mol, so omit the unit and give the number.

Below: 5 variants and their reported folding stability dG.
EVIELKIKFKTPEQREKLKEIAKKLNAEVVEEKDGEVIIRFATPEQAERALKEAEKLGAEVEL	4.1
EVIELKIKFKTPEQREKLKEIAKKLNAEVVEEKYGEVIIRFKTPEQAERALKEAEKLGAEVEL	4.29
EVIELKIKFKTPEQREKLKEIAKKLNAEVVEEKDGEVIIRFKTPEQAERALKEYEKLGAEVEL	4.16
EVIELKIKFKTPEQREKLKEIAKKLNAEVVEEKDGEVIIRFKTPEQAARALKEAEKLGAEVEL	4.5
EVIELKIKFKTPEQREKLKSIAKKLNAEVVEEKDGEVIIRFKTPEQAERALKEAEKLGAEVEL	4.41

## Input Looking for the measured folding stability dG of EVIELKIKFKTPEQREKLKEIQKKLNAEVVEEKDGEVIIRFKTPEQAERALKEAEKLGAEVEL , can you help?
## Output 4.39

## Input Try this variant too: EVIELKIKFKTPEQREKLKEIAKCLNAEVVEEKDGEVIIRFKTPEQAERALKEAEKLGAEVEL
## Output 4.53

## Input Check EVIELKIKFKTPEQREKLKEIAKKLNAEVVEEKDGEVIIRFKTPEQAERALKSAEKLGAEVEL too.
## Output 4.21

## Input Param item: EVIELKIKDKTPEQREKLKEIAKKLNAEVVEEKDGEVIIRFKTPEQAERALKEAEKLGAEVEL
## Output 3.45

## Input Try this variant too: EVIELKIKFKTPEQREKLFEIAKKLNAEVVEEKDGEVIIRFKTPEQAERALKEAEKLGAEVEL
## Output 4.62

## Input How about this variant: EVIELKIKFKTVEQREKLKEIAKKLNAEVVEEKDGEVIIRFKTPEQAERALKEAEKLGAEVEL
## Output 4.49

## Input Can you handle EVIEAKIKFKTPEQREKLKEIAKKLNAEVVEEKDGEVIIRFKTPEQAERALKEAEKLGAEVEL next?
## Output 4.37

## Input Queued: EVIELKIKFKTPEQREKLKEIAKKLNAEVVEEKDGEVIIRFKTPEQAERALKEAEKLTAEVEL
## Output 4.26
